Subject Of Test: hCB1-CHO membranes (Homo sapiens)
Sequence (P21554 whole entry): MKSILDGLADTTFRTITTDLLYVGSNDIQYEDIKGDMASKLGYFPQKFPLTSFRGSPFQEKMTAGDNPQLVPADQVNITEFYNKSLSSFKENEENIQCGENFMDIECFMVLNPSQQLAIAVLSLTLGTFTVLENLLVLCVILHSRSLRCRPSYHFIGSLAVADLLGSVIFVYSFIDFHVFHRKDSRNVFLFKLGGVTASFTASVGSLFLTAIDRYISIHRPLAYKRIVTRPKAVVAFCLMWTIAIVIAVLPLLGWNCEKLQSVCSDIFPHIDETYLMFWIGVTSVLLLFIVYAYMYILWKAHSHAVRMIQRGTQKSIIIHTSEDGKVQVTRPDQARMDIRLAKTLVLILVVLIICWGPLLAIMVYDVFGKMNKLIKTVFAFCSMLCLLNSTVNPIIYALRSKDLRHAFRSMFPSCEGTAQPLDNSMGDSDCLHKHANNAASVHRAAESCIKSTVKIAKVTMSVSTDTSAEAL
Test Summary: CB1 in vitro functional assay, SPA based GTP-γ-35S binding, agonist mode (whole membrane capture)
Condition: normalized to full agonist methanandamide, read-out: relative EC50 value for CB1
Where a name gives a salt, the structure may show the parent alone.
Measured Parameter: EC50

1) Cc1nc(N2CCN3C(=O)CCC3C2)c2nc(-c3ccccc3Cl)n(CC3CCOCC3)c2n1 (single isomer, unassigned) [Example 61, hydrochloride salt] :: 1.95 µM

====

Subject Of Test: UniProt Q9QZN9
Sequence (Q9QZN9 1-360): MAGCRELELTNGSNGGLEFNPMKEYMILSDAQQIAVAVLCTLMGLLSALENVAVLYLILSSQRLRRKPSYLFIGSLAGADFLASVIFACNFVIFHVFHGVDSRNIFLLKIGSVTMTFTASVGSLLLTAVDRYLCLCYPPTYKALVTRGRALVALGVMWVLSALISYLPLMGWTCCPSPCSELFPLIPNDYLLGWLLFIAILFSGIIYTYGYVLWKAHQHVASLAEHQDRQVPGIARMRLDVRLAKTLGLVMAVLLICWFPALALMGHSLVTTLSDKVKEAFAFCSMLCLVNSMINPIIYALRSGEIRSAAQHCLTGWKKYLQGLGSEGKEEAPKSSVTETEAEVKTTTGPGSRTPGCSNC
Counter-ions that a name gives are not always drawn.
Measured Parameter: Ki (nM)

1. Cc1nc(N2CCN(C)CC2)c2nc(-c3cccnc3C3CC3)n([C@@H]3CCOC3)c2n1 [Example 76, hydrochloride salt] :: 31.3

====

Subject Of Test: hCB2-Sf9 membranes (Homo sapiens)
Sequence (P34972 whole entry): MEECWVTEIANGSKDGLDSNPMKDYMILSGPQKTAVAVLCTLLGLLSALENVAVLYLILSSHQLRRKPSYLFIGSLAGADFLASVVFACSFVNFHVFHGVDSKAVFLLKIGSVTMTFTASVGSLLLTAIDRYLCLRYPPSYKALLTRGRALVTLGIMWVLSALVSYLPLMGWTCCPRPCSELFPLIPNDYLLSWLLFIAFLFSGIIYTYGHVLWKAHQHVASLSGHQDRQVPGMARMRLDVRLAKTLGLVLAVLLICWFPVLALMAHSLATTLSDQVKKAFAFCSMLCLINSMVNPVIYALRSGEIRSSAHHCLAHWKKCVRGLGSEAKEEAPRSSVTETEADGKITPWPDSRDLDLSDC
Test Summary: CB2 in vitro functional assay, SPA based GTP-γ-35S binding, agonist mode (antibody capture)
Condition: normalized to full agonist methanandamide, read-out: relative EC50 value for CB2
pEC50: −log10 of the molar value. Where a name gives a salt, the structure may show the parent alone.
Measured Parameter: pEC50

1) Cc1nc(N2CCN3C(=O)CCC3C2)c2nc(-c3ccccc3Cl)n(CC3CCOCC3)c2n1 (single isomer, unassigned) [Example 61, hydrochloride salt] :: 7.74

Origin of values: patent US8252798B2
